Experiment: Biolayer interferometry of heme binding
Conditions: biotinylated heme as ligand, peptide as analyte
measurement kind: Kd

Reported Kd for RNGCIVDPRCPYQQCRRPLYCRRR [NCR247] : what is it?
~1 nM

// data source = patent US12065468B2
